Reported values of Population Apoptotic (%) for individual entries
# System: U2OS
# test_name: Multiplex assay against U2OS
# Assay type: toxicity, cell-based
# condition_set: human, 12 h, 1 µM, compound concentration 1 uM, replicate 1
Report the value in % with no unit label.

[[record]]
compound = "CC[C@H](Nc1ncnc2[nH]cnc12)c1nc2cccc(F)c2c(=O)n1-c1ccccc1 [IDELALISIB]"
measured_value = 46

[[record]]
compound = "Oc1cccc(-c2nc(N3CCOCC3)c3oc4ncccc4c3n2)c1 [PI-103]"
measured_value = 73

[[record]]
compound = "CC(C)c1cc(Nc2nc(N3CCC[C@H](N)C3)ncc2C(N)=O)cc(C(C)C)n1"
measured_value = 51


Here is the next item to consider.
Q: Which measured Population Apoptotic (%) value corresponds to Cl.Cn1c2c(c3ccc(Cl)c(Cl)c31)C(C#N)C1(CCNCC1)NC2=O (stereo not drawn) ?
Ans: 30

* * *

# Test system: U2OS
# test_name: Incucyte cell viability with U2OS; note: filed as whole numbers so only -1 and 0 and 1 occur
# Assay type: toxicity, cell-based
# condition_set: human, 18 h, 10 µM, compound concentration 10 uM, replicate number 2, timepoint 18 hours
recorded_endpoint: Growth Rate
Just the number, please, no unit after it.

[[record]]
compound = "CCOC(=O)c1ccc(C#Cc2ccc3c(c2)C(C)(C)CCS3)nc1"
measured_value = 1

[[record]]
compound = "CCC(=O)NC1Cc2ccccc2C(c2ccccc2)C1 (stereo not given)"
measured_value = 0


Q: Which measured Growth Rate value corresponds to CC1=C2C[C@H]3[C@@H](CC=C4C[C@@H](O)CC[C@@]43C)[C@@H]2CC[C@]12O[C@@H]1C[C@H](C)CN[C@H]1[C@H]2C ?
Ans: 1

Q: Ok, now Cc1ccc2[nH]c(CNCCCc3ccncc3)cc(=O)c2c1 [UCSF924NC]
Ans: 1

Q: Ok, now C[C@H](NC(=O)Nc1cc2[nH]ncc2c(CO)n1)c1ccccn1
Ans: 1

Q: Ok, now COc1cccc(-c2c(C)n(Cc3c(F)cccc3C(F)(F)F)c(=O)n(C[C@H](NCCCC(=O)[O-])c3ccccc3)c2=O)c1F.[Na+] [ELAGOLIX SODIUM]
Ans: 1

Q: Ok, now CC(C)(O)c1cncc(-c2nc3ccc(F)cc3n2C2CC2)c1
Ans: 1

* * *

# Tested on: Fibroblast
# test_name: Multiplex assay against human fibroblast
# Format: toxicity, cell-based
# condition_set: 24 h, 10 µM, compound concentration 10 uM, replicate 2
Population Pyknosed Nuclei (%) strictly less than 20% = Fulfilled. Otherwise Not fulfilled.

For orientation, consider the following solved cases.
[[record]]
molecule = "Cl.Cn1c2c(c3ccc(Cl)c(Cl)c31)C(C#N)C1(CCNCC1)NC2=O (centres undefined)"
class = "Fulfilled"

[[record]]
molecule = "CC[C@@]1(O)C(=O)OCc2c1cc1n(c2=O)Cc2cc3ccccc3nc2-1"
class = "Fulfilled"

[[record]]
molecule = "COc1cc(C)c(Sc2cnc(NC(=O)c3ccc(CNC(C)C(C)(C)C)cc3)s2)cc1C(=O)N1CCN(C(C)=O)CC1 (centres undefined)"
class = "Fulfilled"


Q: Here's an entry: Cc1c(Nc2ccc(S(=O)(=O)N3CCN(C)CC3)cc2F)nc2ccc(Nc3cnn(C4CC4)c3)cn2c1=O . Is its Population Pyknosed Nuclei (%) below 20%?
Ans: Fulfilled

Q: Ok, now CCCc1cc(C)[nH]c(=O)c1CNC(=O)c1cc(-c2ccc(N3CCN(C(C)C)CC3)nc2)cc2c1cnn2C(C)C
Ans: Not fulfilled

Q: Ok, now c1ccc(-c2oc3ncnc(NC[C@@H]4CCCO4)c3c2-c2ccccc2)cc1
Ans: Fulfilled

Q: Ok, now CC(C)C[C@H](NC(=O)[C@H](Cc1ccccc1)NC(=O)CNC(=O)CNC(=O)[C@@H](N)Cc1ccc(O)cc1)C(=O)O
Ans: Fulfilled

Q: Ok, now CCOc1ccn(-c2ccc(F)cc2)c(=O)c1C(=O)Nc1ccc(Oc2ccnc(N)c2Cl)c(F)c1
Ans: Fulfilled

Q: Ok, now N#CCNC(=O)c1ccc(-c2ccnc(Nc3ccc(N4CCOCC4)cc3)n2)cc1
Ans: Fulfilled

Q: Ok, now CC[C@H](Nc1ncnc2[nH]cnc12)c1nc2cccc(F)c2c(=O)n1-c1ccccc1
Ans: Fulfilled

Q: Ok, now Oc1cccc(-c2nc(N3CCOCC3)c3oc4ncccc4c3n2)c1
Ans: Not fulfilled

Q: Ok, now CCCCN(CC)c1nc(C)nc2c1c(C)cn2-c1c(C)cc(C)cc1C.Cl
Ans: Fulfilled

Q: Ok, now CCCCCNC(=N)N/N=C/c1c[nH]c2ccc(OC)cc12.O=C(O)/C=C\C(=O)O [TEGASEROD MALEATE]
Ans: Not fulfilled

Q: Ok, now CC[C@@H]1C(=O)N(C)c2cnc(Nc3ccc(C(=O)NC4CCN(C)CC4)cc3OC)nc2N1C1CCCC1
Ans: Fulfilled

Q: Ok, now CC(Cc1ccc(O)c(O)c1)C(C)Cc1ccc(O)c(O)c1 (centres undefined) [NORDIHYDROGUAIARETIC ACID]
Ans: Fulfilled

Q: Ok, now Cc1ccc(NC(=O)Nc2cc(C(F)(F)F)ccc2F)cc1Nc1ccc2c(c1)NC(=O)/C2=C\c1ccc[nH]1
Ans: Fulfilled

Q: Ok, now CC(/C=C1\SC(=S)N(CCCC(=O)Nc2ccc(C(=O)O)c(O)c2)C1=O)=C\c1ccccc1
Ans: Fulfilled

Q: Ok, now N#Cc1cccc(C(=O)Nc2cc(-c3ccccc3)nn2-c2ccccc2)c1
Ans: Not fulfilled

Q: Ok, now CCOC(=O)CCNc1cc(N2CCc3ccccc3CC2)nc(-c2ccccn2)n1
Ans: Fulfilled

Q: Ok, now CC(C)[C@H](CO)Nc1nc(Nc2cccc(Cl)c2)c2ncn(C(C)C)c2n1
Ans: Fulfilled

Q: Ok, now C=CC(=O)Nc1cc(-n2c(=O)ccc3cnc4ccc(-c5ccc(NS(C)(=O)=O)cc5)cc4c32)ccc1C
Ans: Not fulfilled

Q: Ok, now CC(C)c1cc(Nc2nc(N3CCC[C@H](N)C3)ncc2C(N)=O)cc(C(C)C)n1
Ans: Not fulfilled

Q: Ok, now Cc1c(P(=S)(c2ccccc2)c2ccccc2)n2ccccc2[n+]1C/C=C/c1ccccc1.[Br-]
Ans: Not fulfilled

Q: Ok, now Cc1ccc(S(=O)(=O)NC2c3ccccc3Oc3ccccc32)cc1
Ans: Not fulfilled

Q: Ok, now CN(c1cc(C(F)(F)F)nc(OCCC(=O)O)n1)c1cccc2c1CCC2
Ans: Fulfilled
